Cited source for all entries: paper PMC9482650

# Measurement Target: MAST2, Q6P0Q8
# Sequence (Q6P0Q8 1099-1202): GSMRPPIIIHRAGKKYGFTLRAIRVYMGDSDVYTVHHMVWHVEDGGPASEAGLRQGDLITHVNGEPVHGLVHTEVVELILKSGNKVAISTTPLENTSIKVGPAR
# Assay Protocol: holdup assay
# Set-up: key: below the threshold = too weak to quantify, mostly under pKd 3.1 to 4
# Assay Context: plain residues with an end cap or a label only (N-terminal biotin on a linker: ado-ado)
Measured Attribute: pKd
Reply with the value as a number alone.

Solved entries:
INSERT INTO measurements (binder, measured_attribute, recorded_measurement) VALUES
  ('DSEEELPTRL [GRK6, P43250]', 'pKd', 4.83),
  ('LVEEEEPMNL [HDAC7, Q8WUI4]', 'pKd', 4.08),
  ('TFSRRPKTRV [CD226, Q15762]', 'pKd', 4.1),
  ('TKEIPNCTSV [SORCS3, Q9UPU3]', 'pKd', 5.82),
  ('QLKSGRDSTV [TMEM178A, Q8NBL3]', 'pKd', 4.08);

input: Reported pKd for PEKVSNTTVV [IGSF5, Q9NSI5] : what is it?
output: 4.99

input: Reported pKd for SKQFDKNAYV [CLDN10, P78369] : what is it?
output: 4.02
